Biological target: Tyrosine-protein kinase Fer (Homo sapiens)
Sequence (P16591 whole entry, the tested form may be a part): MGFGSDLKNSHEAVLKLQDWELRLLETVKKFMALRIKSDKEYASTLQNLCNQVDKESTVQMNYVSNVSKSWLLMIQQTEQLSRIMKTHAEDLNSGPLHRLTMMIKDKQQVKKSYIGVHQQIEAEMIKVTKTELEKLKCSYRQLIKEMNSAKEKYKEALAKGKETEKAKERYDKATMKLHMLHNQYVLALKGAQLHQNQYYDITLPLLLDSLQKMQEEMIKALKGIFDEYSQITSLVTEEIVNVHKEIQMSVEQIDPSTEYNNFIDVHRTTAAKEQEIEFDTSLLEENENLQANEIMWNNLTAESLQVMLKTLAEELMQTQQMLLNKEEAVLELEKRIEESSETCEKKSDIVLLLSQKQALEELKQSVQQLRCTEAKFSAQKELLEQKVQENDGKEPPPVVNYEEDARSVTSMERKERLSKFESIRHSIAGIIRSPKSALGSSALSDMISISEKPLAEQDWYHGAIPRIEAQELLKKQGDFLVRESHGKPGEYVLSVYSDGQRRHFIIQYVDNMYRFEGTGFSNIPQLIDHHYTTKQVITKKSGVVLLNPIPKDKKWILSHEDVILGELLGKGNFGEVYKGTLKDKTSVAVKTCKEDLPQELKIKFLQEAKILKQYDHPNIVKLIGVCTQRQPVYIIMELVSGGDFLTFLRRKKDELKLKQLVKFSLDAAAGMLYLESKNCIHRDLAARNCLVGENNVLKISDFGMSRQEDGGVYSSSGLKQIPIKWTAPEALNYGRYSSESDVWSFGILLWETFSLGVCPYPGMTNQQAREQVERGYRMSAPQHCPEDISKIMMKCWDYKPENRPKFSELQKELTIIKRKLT
Assay: Inhibition of recombinant N-terminal His-tagged human FER (SH2 domain to C-terminal) expressed in Escherichia coli assessed as decrease in FL-Peptide22 substrate phosphorylation incubated for 90 mins
Measurement type: IC50

| Compound | IC50 |
| --- | --- |
| Cc1cccc(-n2c(=O)[nH]c3cc(C#N)c(N[C@@H]4CCCC[C@@H]4N)nc32)c1 | > 1.3 µM |
| N#Cc1cc2c(N)nn(Cc3ccccc3)c2nc1NC1CCCCC1N (racemic) | > 4 µM |
| Cc1cccc(Nc2nc(N[C@@H]3CCCC[C@@H]3N)c(C#N)c3cn[nH]c(=O)c23)c1 | 0.00049 µM |
| N#Cc1cc(C(N)=O)c(N)nc1N[C@@H]1CCCC[C@@H]1N | > 4 µM |
| Cc1cccc(Nc2ccc(C#N)c(N[C@@H]3CCCC[C@@H]3N)n2)c1 | > 4 µM |

IC50 for Cc1cccc(Cc2nc(N[C@@H]3CCCC[C@@H]3N)c(C#N)cc2C(N)=O)c1 ?
> 4 µM
